- Tested on: E. cloacae 7099
Counter-ions that a name gives are not always drawn.
Entries and their measured MIC follow.
Report only the number, with the unit µg/mL understood.

**Query** // fetch E. cloacae 7099 MIC for CCn1cc(C(=O)OCC2=C(C(=O)O)N3C(=O)[C@@H](NC(=O)Cc4cccs4)[C@H]3SC2)c(=O)c2cc(F)c(N3CCN(C=O)CC3)cc21 [Compound G, sodium salt]
**Result** 2

**Query** Same question for CCn1cc(C(=O)OCC2=C(C(=O)O)N3C(=O)[C@@H](NC(=O)/C(=N\OC)c4csc(N)n4)[C@H]3SC2)c(=O)c2cc3c(cc21)OCO3 [Compound D, sodium salt] please.
**Result** 0.5

Consider now this further molecule.
**Query** Give E. cloacae 7099 MIC for CCn1cc(C(=O)OCC2=C(C(=O)O)N3C(=O)[C@@H](NC(=O)/C(=N\OC)c4csc(N)n4)[C@H]3SC2)c(=O)c2ccc(C)nc21 [Compound C, sodium salt]
**Result** 8

###

- Test system: E. cloacae 7099
- Test Summary: In vitro MIC, Broth Dilution Method, E. cloacae 7099
- Assay type: cell-based
- Condition Set: Enterobacter cloacae
Counter-ions that a name gives are not always drawn.
Measured Endpoint: MIC (µg/mL)
Provide only the numeric value, understood in µg/mL.

Some compounds with recorded MIC:
**Query** # input compound: CCn1cc(C(=O)OCC2=C(C(=O)O)N3C(=O)[C@@H](NC(=O)COc4ccccc4)[C@H]3SC2)c(=O)c2ccc(C)nc21 [Compound A, hydrate] ; wanted: its MIC
**Result** 16

**Query** Same lookup for CCn1cc(C(=O)OCC2=C(C(=O)O)N3C(=O)[C@@H](NC(=O)/C(=N\OC)c4csc(N)n4)[C@H]3SC2)c(=O)c2cc(F)c(N3CCCC3)cc21 [Compound I, sodium salt] , please.
**Result** 2

**Query** CCn1cc(C(=O)OCC2=C(C(=O)O)N3C(=O)[C@@H](NC(=O)COc4ccccc4)[C@H]3SC2)c(=O)c2cc(F)c(N3CCN(C=O)CC3)cc21 [Compound E, sodium salt] , same question.
**Result** 2

With those in mind, consider the next compound.
**Query** Quick check: MIC of CCn1cc(C(=O)OCC2=C(C(=O)O)N3C(=O)[C@@H](NC(=O)COc4ccccc4)[C@H]3SC2)c(=O)c2cc(F)c(N3CCCC3)cc21 [Compound H, sodium salt] ?
**Result** 2

###

- Tested on: S. marcescens SM
Counter-ions that a name gives are not always drawn.
Measured Endpoint: MIC (µg/mL)
Numbers only; they are read as µg/mL.

Examples with their reported MIC follow.
**Query** What value of MIC has been reported for the following molecule? CCn1cc(C(=O)OCC2=C(C(=O)O)N3C(=O)[C@@H](NC(=O)/C(=N\OC)c4csc(N)n4)[C@H]3SC2)c(=O)c2cc3c(cc21)OCO3 [Compound D, sodium salt]
**Result** 0.5

**Query** Let us now turn to CCn1cc(C(=O)OCC2=C(C(=O)O)N3C(=O)[C@@H](NC(=O)COc4ccccc4)[C@H]3SC2)c(=O)c2ccc(C)nc21 [Compound A, hydrate]
**Result** 16

**Query** And what about the molecule CCn1cc(C(=O)OCC2=C(C(=O)O)N3C(=O)[C@@H](NC(=O)/C(=N\OC)c4csc(N)n4)[C@H]3SC2)c(=O)c2ccc(C)nc21 [Compound C, sodium salt] ?
**Result** 1

Read the next record carefully.
**Query** What does the data say about its MIC? Entry: CCn1cc(C(=O)OCC2=C(C(=O)O)N3C(=O)[C@@H](NC(=O)COc4ccccc4)[C@H]3SC2)c(=O)c2cc(F)c(N3CCCC3)cc21 [Compound H, sodium salt]
**Result** 32

FYI, the data here is from patent US5147871A.
